System: MS2 coat protein
Assay: apparent KD of MS2 coat protein; designed switch direction (-1 OFF switch, 1 ON switch): -1; higher = weaker reporter binding
Conditions: Eterna round: R95; input ligand: FMN 200 uM

{"Sequence": "GAUUGACAUGAGGAUCACCCAUGUGAGGAUAUCGGCUGGACCGUGUUGGCUUGCUUUCCGAGAAGGCGCAUAGG [Exclusion 1 V50] (puzzle: Exclusion 1)", "apparent KD of MS2 coat protein / nM": 81.7}
{"Sequence": "CAUGCUUCGGCAUGUACAAGCUUUUUGCUCGUCUUAUUAACAUGAGGAUCACCCAUGUACAAGAGACCUCAUGUAUU [Sensor v3 - turn-off variant 2 - 11] (puzzle: Sensor v3, turn-off variant 2)", "apparent KD of MS2 coat protein / nM": 293}
{"Sequence": "AGUACUAUCACGAAAGUGAUAGUACAAAAUAGCAAGUGAACAUGAGGAUCACCCAUGUCCUCAUUUGCUCGUCUUAU [Sensor 3 - 19] (puzzle: Sensor v3, turn-off variant 2)", "apparent KD of MS2 coat protein / nM": 15.1}
{"Sequence": "AGUAACUAUCACGAAAGUGAUAGUUACAAACAAGUGAAAACAUGAGGAUCACCCAUGUCCUCAUUUGCUCGUCUUAU [Sensor 3 - 7] (puzzle: Sensor v3, turn-off variant 2)", "apparent KD of MS2 coat protein / nM": 182}
{"Sequence": "UUUUUAGUGCUUUUUAAGUACAUGAGGAUCACCCAUGUACUUGUCUGGUGGUCCGGACAAGCUUUUUGCUCGUCUAA [Sensor v3 - turn-off variant 1 - 1] (puzzle: Sensor v3, turn-off variant 1)", "apparent KD of MS2 coat protein / nM": 48.9}
{"Sequence": "GAGGACUGAGGAUAUGCGUUGGUACCUCGUAGUAAGCAAAGACAUGAGGAUCACCCAUGUAGAAGGCGGAAAAG [Xegeinenxe] (puzzle: Exclusion 2)", "apparent KD of MS2 coat protein / nM": 150}
{"Sequence": "UUGCUCCCUUAGUACUCUACAAGUUUUUUGUUCGUUUUAACAUGAGGAUCACCCAUGUCUAGUGGAUCUGAUCGGGU [JL ViennaUCT Isreen mod 5] (puzzle: Sensor v3, turn-off variant 2)", "apparent KD of MS2 coat protein / nM": 172}
{"Sequence": "AAAAGCUCAGUCAGGAUAUGCAUUUGCACCGGCGAGCAGAAGGGACAUGAGGAUCACCCAUGUACGCGGCAGGG [Laaraor] (puzzle: Brourd's mod of Exclusion 4)", "apparent KD of MS2 coat protein / nM": 80.8}
{"Sequence": "GAUUAUGCGAGCUUUAGGGACAUGAGGAUCACCCAUGUUCGUCUUAUUGGUCUAGGUGCACUAACAUACCUAAAUCU [JMF 36] (puzzle: Sensor v3, turn-off variant 1)", "apparent KD of MS2 coat protein / nM": 22.3}
{"Sequence": "CGAAGUAGAAACCGAUCCUACAUGAGGAUCACCCAUGUAGCAAGACGUGCACGCGAAGCUCGUCAGACUACCAGAAA [salish99_TOv1_r3_016] (puzzle: Sensor v3, turn-off variant 1)", "apparent KD of MS2 coat protein / nM": 200}
{"Sequence": "AAUAAUCGAGGAUAUACUAAAAUAUGAAUAAAAUAAAUAAAACAUGAGGAUCACCCAUGUAGAAGGCGAAAUAA [JMF's Not so obvious solution 1] (puzzle: Exclusion 2)", "apparent KD of MS2 coat protein / nM": 20.8}
{"Sequence": "GGCCCUAAGGUCAGAUUCACAAGCUUUUUGCUCGUUUUAACAUGAGGAUCACCCAUGUCUAGUGGAUCUGAUCCUCU [Sensor v3, turn-off variant 2 (MOD of Indiso v.1)] (puzzle: Sensor v3, turn-off variant 2)", "apparent KD of MS2 coat protein / nM": 27.5}
{"Sequence": "CAUGAUCUUCGGAUCAUGGACAUGAGGAUCACCCAUGUCACGAGCAGAUCCUCAUGCAAGCUUUUUGCUCGUCUUAU [Sensor v3 - Turn-off variant 1 - 35] (puzzle: Sensor v3, turn-off variant 1)", "apparent KD of MS2 coat protein / nM": 62.9}
{"Sequence": "AGUAACUAUCACGAAAGUGAUAGUUACACAAGUGAAUAAACAUGAGGAUCACCCAUGUCCUCAUUUGCUCGUUUUAU [Sensor 3 - 17] (puzzle: Sensor v3, turn-off variant 2)", "apparent KD of MS2 coat protein / nM": 486}
{"Sequence": "AAGUACCGUCACGAAAGUGAUGGUACAACAAGCAAAUGUACAUGAGGAUCACCCAUGUCCUCAAUUGCUCGUCUUAU [Sensor 3 - 57] (puzzle: Sensor v3, turn-off variant 2)", "apparent KD of MS2 coat protein / nM": 88.2}
{"Sequence": "AAGGAGUUAGGAUAUCGAAGAAGAAGAAGAAGAAGAAGAAGCGAGAAGGAACAUGAGGAUCACCCAUGUAAGAA [JR_Exclu4_Sub028] (puzzle: Exclusion 4)", "apparent KD of MS2 coat protein / nM": 32.5}
{"Sequence": "UAAAACUGAGGAUAUACAUGAGGAUCACCCAUGUCAAUUGACAGCGGCGUGGCAAAAGGUAGAAGGCAGGCGGU [Lerete] (puzzle: Exclusion 3)", "apparent KD of MS2 coat protein / nM": 43}
{"Sequence": "UUUAAACUUACAAUCUUCGCUGGCAUGCUUGUGCCAGCUACAUGAGGAUCACCCAUGUUUUUUGCUCGUCUUAUUCU [Usre] (puzzle: Sensor v3, turn-off variant 2)", "apparent KD of MS2 coat protein / nM": 23.5}
{"Sequence": "CUGGUCCGAGGAUAUAUUAUGUGAUACAUGAGGAUCACCCAUGUUAUAUGAUGGAUGUUAGUAGAAGGCGGACUAC [salish99_ex5_r3_001] (puzzle: Exclusion 5)", "apparent KD of MS2 coat protein / nM": 102}
{"Sequence": "GGUUGGCGAGGAUAUACAUGAGGAUCACCCAUGUGAGAGAAAGAAGUGAGGAAGAAAAGUAGAAGGCGUUGACG [salish99_ex3_r3_053] (puzzle: Exclusion 3)", "apparent KD of MS2 coat protein / nM": 50.6}
